read-out: Monocyte Chemoattractant Protein-1 (MCP1), CCL2 (gene 6347); test: BSK_CASM3C_MCP1: BioMAP Diversity Plus: CASM3C Assay for Monocyte Chemoattractant Protein-1 (MCP1) Biomarker Activity (AID 2283046); settings: primary human coronary artery smooth muscle cells; actives raise or lower the signal;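 note: MCP-1 level quantified by ELISA 24 h after dosing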
The source made the active and inactive calls. Rule for the calls: active = hit-call score of the fitted dose curve at least 0.9, where 1 is the maximum; inactive = score below 0.9.
Outcome codes: yes (active), no (inactive)

CCC(C)c1cc([N+](=O)[O-])cc([N+](=O)[O-])c1OC(=O)C=C(C)C (centres undefined) = no
CC(=O)/C=C/c1ccccc1 = yes
O=c1[nH]c(Cl)c(Cl)cc1Cl = no
CC(C)(C)C(O)C(Oc1ccc(-c2ccccc2)cc1)n1cncn1 (centres undefined) = yes
O=c1c2ccccc2c(=O)c2c1cc(Cl)c1[nH]c3c([nH]c12)c(Cl)cc1c(=O)c2ccccc2c(=O)c13 = no
Cc1ccc(OP(=O)(Oc2ccc(C)cc2)Oc2ccc(C)cc2)cc1 (tested in a mixture with another compound) = no
CC(C)CCCCCCCOP(=O)(Oc1ccccc1)Oc1ccccc1 = no
CC(C)(c1cc(Cl)c(O)c(Cl)c1)c1cc(Cl)c(O)c(Cl)c1 = yes
N#CCCCCC#N = no
CCCOC(=O)c1ccccc1C(=O)OCCC = no
CCCC[N+](CCCC)(CCCC)CCCC = no
CC1(C)[C@H](C(=O)O[C@H](C#N)c2cccc(Oc3ccccc3)c2)[C@@H]1C=C(Br)Br = no
O=P1(NCCCl)OCCCN1CCCl (centres undefined) = no
CC(C)(C)C(=O)CCl = no
CC(C)COP(=O)(OCC(C)C)OCC(C)C = no
O=C1C=CC(=O)C=C1 = no
c1ccc(Nc2ccc3ccccc3c2)cc1 = no
CNC(=O)Oc1cc(C)c(SC)c(C)c1 = no
O=S(=O)(c1ccccc1)c1ccccc1 = no

FYI, the data here is from PubChem BioAssay (EPA / NIEHS).
